- Measurement protocol: Inhibition of bovine brain tubulin polymerization after 20 mins
- Parameters: species or system Bos taurus
Exercise: state measured IC50 for each of the compounds provided.
Record the value in µM, omitting the unit from your answer.

For the compound CCN(CC)C(=S)SC(CC(=O)c1ccc(Br)cc1)c1ccc(OC)cc1 (stereo not drawn) , give its reported IC50.
52

Give a short answer stating reported IC50 for CCN(CC)C(=S)SC(CC(=O)c1ccccc1)c1ccccc1OC (stereo not drawn) .
150

Provide IC50 value for the following compound: CCN(CC)C(=S)SC(CC(=O)c1ccc(Br)cc1)c1ccccc1 (stereo not drawn)
65
